Molecular target: T1, SARS-CoV-2 Gamma Variant RBD (SARS-CoV-2 Gamma variant)
T1 construct: domain: RBD; coated on ELISA plates
Experiment: ELISA, RBD coated
pEC50: −log10 of the molar value.
Entries and their pEC50 values follow.
result.type: pEC50

* PP902 MBP-5HVZ-R1e-D4-H6 (VHH, Form: Dimer) VHH: QVQLVESGGGLVQPGGSLRLSCAASGSIREINAMHWVRQAPGKGRELVASIDSGSLDYYADSVKGRFTISRDNAKNTVYLQMNSLKPEDTAVYYCAASRSGDYRYWGQGTQVTVSS | 6.35
* PP1105 MBP-5HVZ-PAPA-RN-20-H6 (VHH, Form: Dimer) VHH: QVQLVESGGGLVQPGGSLRLSCAASGNYFEINKMHWFRQAPGKQREFVATIGSGGSTAYADSVKGRFTISRDNAKNTVYLQMNSLKPEDTAVYYCNALIYLADRRDGYYSYDYWGQGTQVTVSS | 7.81
* PP931 MBP-5HVZ-R5a-F5-H6 (VHH, Form: Dimer) VHH: QVQLVESGGGLVQPGGSLRLSCAASGYHASILAMHWVRQAPGKEREWVASMTWSDMTQYSDSVKGRFTISRDNAKNTVYLQMNSLKPEDTAVYYCAATYVTRDRPWTHWGQGTQVTVSS | 6.96
* PP1107 MBP-5HVZ-PAPA-RN-22-H6 (VHH, Form: Dimer) VHH: QVQLVESGGGLVQPGGSLRLSCAASGSISEINLLHWFRQAPGKQREWVATMTSGGSTDYADSVKGRFTISRDNAKNTVYLQMNSLKPEDTAVYYCAADEFTKYGHGRYWGQGTQVTVSS | 9.74
